From: PubChem BioAssay (NCI)

test system: CCRF-CEM leukemia; assay: NCI tumour cell line growth inhibition, 48 h
Give measured TGI for each item. Keep answers brief.

Query string: Look at this compound and give its reported TGI. CCC12CCCN(Cc3ccccc3)C1c1c(n(C)c3ccccc13)C(CO)C2 (centres undefined)
Result string: > 257 µM

Query string: And what about the compound O=C(NC(=S)Nc1ccc([N+](=O)[O-])cc1)c1ccc2c(c1)Sc1ccccc1O2 ?
Result string: > 100 µM

Query string: And what about the compound CCn1c2nc(=O)n(CCCCCCCCSC(c3ccccc3)(c3ccccc3)c3ccccc3)c(=O)c-2nc2ccccc21 ?
Result string: > 100 µM

Query string: And what about the compound Cc1cc(=O)oc2cc(OCCCOc3ccc4c(C)cc(=O)oc4c3)ccc12 ?
Result string: > 100 µM

Query string: And what about the compound O=C(CCC(=O)Nc1ccc(Cl)c(Cl)c1)CC(=O)c1ccc2ccccc2c1 ?
Result string: > 100 µM

Query string: And what about the compound NC(=O)c1cccc2c(N[C@H](CN3CCC3)c3ccc(Cl)c(C(F)(F)F)c3)ncnc12 ?
Result string: 12 µM

Query string: And what about the compound COC(=O)c1c(O)ccc2c1c1cc3ccccc3cc1n2Cc1cc(OC)cc(OC)c1 ?
Result string: > 100 µM

Query string: And what about the compound CCN1c2ccccc2NC(=S)c2c1n[nH]c2-c1ccccc1 ?
Result string: 49.4 µM

Query string: And what about the compound O[C@@H]1C[C@H](Cl)c2c(Cl)sc(Cl)c21 ?
Result string: > 100 µM

Query string: And what about the compound COc1ccc(-n2c(SC(CN3CCOCC3)CN3CCCC3=O)nc3ccccc3c2=O)cc1 (centres undefined) ?
Result string: > 100 µM

Query string: And what about the compound COC(=O)CNC(=O)C(Cc1ccccc1)NC(=O)c1ccc(-c2ccc(Cl)cc2Cl)o1 (centres undefined) ?
Result string: 39.5 µM

Query string: And what about the compound CN1CC=C(c2cc(NC(=O)Nc3ccc(Oc4ccnc(NC(=O)C5CC5)c4)c(F)c3)cc(C(F)(F)F)c2)CC1 ?
Result string: 0.702 µM

Query string: And what about the compound O=C(O)CN(c1ccccc1)S(=O)(=O)c1cccc([N+](=O)[O-])c1 ?
Result string: > 100 µM

Query string: And what about the compound CN(C)CCNC(=O)c1cccc2ccc(-c3ccc(Br)cc3)nc12 ?
Result string: 7.75 µM

Query string: And what about the compound N#CC(C#N)=NNc1ccc2cn[nH]c2c1 ?
Result string: 55 µM

Query string: And what about the compound Cc1ccc(S(=O)(=O)N2CCC[C@@H]2C(=O)O[C@@H]2CCC3CC=CC32)cc1 (some centres undefined) ?
Result string: > 100 µM

Query string: And what about the compound O=C(CN1CCCC1=O)CS(=O)(=O)c1ccccc1 ?
Result string: > 100 µM

Query string: And what about the compound O=c1[nH]c2ccccc2c(O)c1Cc1ccccc1 ?
Result string: > 100 µM

Query string: And what about the compound Cn1c(-c2ccc[se]2)ccc1-c1ccc(C=O)[se]1 ?
Result string: 14.1 µM

Query string: And what about the compound Cc1ccccc1C1=C(c2cn(C)c3ccccc23)C(=O)NC1=O ?
Result string: > 25 µM

Query string: And what about the compound O=C1/C(=C/c2ccc(O)cc2)CCCC1CN1CCCCC1 (centres undefined) ?
Result string: > 100 µM

Query string: And what about the compound CN1C(=O)CC2(C)c3cc(O)cc(Br)c3N(C)C12 (centres undefined) ?
Result string: > 100 µM

Query string: And what about the compound CCOC(=O)/C=C/C(=O)O/C=C/[N+](=O)[O-] ?
Result string: > 100 µM

Query string: And what about the compound CC(=O)O[C@H]1C(=O)[C@@]2(C)[C@H]([C@H](OC(=O)c3ccccc3)[C@]3(O)C[C@H](OC(=O)[C@H](O)[C@@H](NC(=O)c4ccccc4)c4ccc5ccccc5c4)C(C)=C1C3(C)C)[C@]1(OC(C)=O)CO[C@@H]1C[C@@H]2O ?
Result string: > 11.2 µM

Query string: And what about the compound COC(=O)c1cc(NC(=O)c2cc(NC(=O)c3cc([N+](=O)[O-])n(C)c3)cn2C)cn1C ?
Result string: > 100 µM

Query string: And what about the compound O=C1C(=c2ccc(=C3C(=O)c4ccc([N+](=O)[O-])cc4[N+]3=O)cc2)N([O-])c2cc([N+](=O)[O-])ccc21 ?
Result string: > 100 µM

Query string: And what about the compound COc1ccc2nc3c([N+](=O)[O-])ccc(NCCN(C)C)c3c(N)c2c1 ?
Result string: 0.531 µM

Query string: And what about the compound CCC(=O)Nc1cccc(N=Cc2ccc(OC(=O)/C=C\c3ccccc3)cc2)c1 ?
Result string: > 75 µM

Query string: And what about the compound COC1OCC(O)C(NC(=O)N(C)N=O)C1O (centres undefined) ?
Result string: > 100 µM

Query string: And what about the compound O=C(C=Nc1ccccc1C(=O)[O-])c1cccs1.O=C(C=Nc1ccccc1C(=O)[O-])c1cccs1.[Ni+2] ?
Result string: > 100 µM

Query string: And what about the compound COC(=O)c1ccc2nc(-c3cc4ccccc4n3C)n(CCCCOc3cc4c(cc3OC)C(=O)N3CCC[C@H]3C=N4)c2c1 ?
Result string: > 100 µM

Query string: And what about the compound CCCCCCCCCCCCCC[n+]1ccccc1 ?
Result string: 1.99 µM

Query string: And what about the compound O=C(c1ccccc1)C(Cl)C(Cl)c1ccccc1 (centres undefined) ?
Result string: 6.93 µM

Query string: And what about the compound Cc1ccc(/C=C/C(=O)Oc2ccc(/C=C3\CCC/C(=C\c4ccc(OC(=O)/C=C/c5ccc(C)cc5)cc4)C3=O)cc2)cc1 ?
Result string: > 100 µM

Query string: And what about the compound O=C(c1ccccc1)N1CCN(C(=S)NC2CCCCC2)C1=S ?
Result string: 45.1 µM

Query string: And what about the compound Cn1cnc(N2CCCC2)c(C#N)c1=S ?
Result string: > 100 µM

Query string: And what about the compound COC1=CC(c2ccc[nH]2)=N/C1=C\c1[nH]c(C)c(C(=O)CCC(=O)Oc2ccc3c(c2)CCC2C3CC[C@]3(C)[C@@H](O)CC[C@@H]23)c1C (some centres undefined) ?
Result string: > 100 µM

Query string: And what about the compound CC(=O)OCC1OC(n2cnc3nc(Br)[nH]c(=O)c32)C(OC(C)=O)C1OC(C)=O (centres undefined) ?
Result string: > 100 µM

Query string: And what about the compound O=C(Cc1ccccc1[N+](=O)[O-])C(CO)c1ccccc1[N+](=O)[O-] (centres undefined) ?
Result string: > 100 µM
